- Test system: RXF 393 renal
- Protocol Summary: NCI-60 one-dose screen, 48 h (100 = growth as untreated, 0 = no growth, -100 = all killed)
- Test Conditions: 10 µM
This is part of a sample that, as a whole, favours compounds with a hit. Of some 83,000 tested, about 20% had one in any assay. Active and inactive are the calls of the source. How the source made its calls: active means growth percent below 10; inactive means the rest.
Entries and their measured growth follow.
Recorded Metric: growth

• COc1cc(C2c3cc4c(cc3C(O)C(CO)C2CO)OCO4)cc(OC)c1OC (stereo not given) = -6.08% (active)
• c1ccc(C2CCCCC2)c(OCCCCCN2CCNCC2)c1 = 36.4% (inactive)
• FC(F)(F)c1ccc(-c2nc(-c3nc4cc(Cl)c(Cl)cc4[nH]3)c3ccccn23)cc1 = 31.7% (inactive)
• Cc1cc(C)c2c(Nc3ncnc4c3sc3nc(C)cc(C)c34)n[nH]c2n1 = 97.6% (inactive)
• CCCn1c(=O)c2c(nc(-c3cccc(OCCCCl)c3)n2C)n(CCC)c1=O = 37% (inactive)
